# credit: patent US6706709B2

EGF Receptor (Homo sapiens) data, read-out pIC50
pIC50: −log10 of the molar value.

Study these solved cases before continuing.
{"molecule": "CCN(CC)CCOc1ccc2[nH]c(C=C3C(=O)Nc4cc(-c5ccccc5)ccc43)cc2c1", "pIC50": "< 4.00"}
{"molecule": "O=C1Nc2ccc(C(=O)O)cc2C1=Cc1cc2cc(OCCN3CCOCC3)ccc2[nH]1", "pIC50": "< 4.70"}
{"molecule": "O=C1Nc2cccc(CCO)c2C1=Cc1cc2cc(OCCN3CCCC3)ccc2[nH]1", "pIC50": "< 4.70"}

Okay, now this molecule:
Entry O=C1Nc2ccc(S(=O)(=O)N3CCCc4ccccc43)cc2C1=Cc1cc2cc(OCCN3CCCC3)ccc2[nH]1 under EGF Receptor (Homo sapiens) had pIC50 of 5.62

----------
Parameter IC50: see the listing below.
molecular target: EGF Receptor (Homo sapiens)

Study these solved cases before continuing.
{"molecule": "CNS(=O)(=O)c1ccc2c(c1)C(=Cc1cc3ccccc3[nH]1)C(=O)N2", "val": "22 µM"}
{"molecule": "NS(=O)(=O)c1ccc2c(c1)C(=Cc1cc3cc(OCCN4CCCC4)ccc3[nH]1)C(=O)N2", "val": "> 100 µM"}
{"molecule": "CN(C)S(=O)(=O)c1ccc2c(c1)C(=Cc1ccc3[nH]ccc3c1)C(=O)N2", "val": "> 100 µM"}
{"molecule": "CCN(CC)CCOc1ccc2[nH]c(C=C3C(=O)Nc4ccc(-c5ccccc5)cc43)cc2c1", "val": "9.55 µM"}
{"molecule": "NS(=O)(=O)c1ccc2c(c1)C(=Cc1ccc3[nH]ccc3c1)C(=O)N2", "val": "> 100 µM"}
{"molecule": "O=C1Nc2cc(C(=O)O)ccc2C1=Cc1cc2cc(OCCN3CCCC3)ccc2[nH]1", "val": "> 20 µM"}
{"molecule": "CCN(CC)CCCc1ccc2[nH]c(C=C3C(=O)Nc4ccc(Br)cc43)cc2c1", "val": "2.87 µM"}
{"molecule": "O=C1Nc2cc(-c3cccnc3)ccc2C1=Cc1cc2cc(OCCN3CCOCC3)ccc2[nH]1", "val": "> 20 µM"}

Entry O=C1Nc2ccc(S(=O)(=O)N3CCc4ccccc4C3)cc2C1=Cc1cc2cc(OCCN3CCOCC3)ccc2[nH]1 under EGF Receptor (Homo sapiens) had IC50 of > 20 µM

----------
target: UniProt:P35918
For each record, check the reported IC50: if it is below 1000 nM write condition met, else write condition not met.

Item CN(C)S(=O)(=O)c1ccc2c(c1)C(=Cc1cc3cc(OCCN4CCCC4)ccc3[nH]1)C(=O)N2 : IC50 beneath 1000 nM, strictly?
condition not met

Item CCN(CC)CCCc1ccc2[nH]c(C=C3C(=O)Nc4ccccc43)cc2c1 : IC50 beneath 1000 nM, strictly?
condition met

Item O=C1Nc2ccc(S(=O)(=O)N3CCc4ccccc43)cc2C1=Cc1cc2cc(OCCN3CCCC3)ccc2[nH]1 : IC50 beneath 1000 nM, strictly?
condition not met

Item CNS(=O)(=O)c1ccc2c(c1)C(=Cc1ccc3[nH]ccc3c1)C(=O)N2 : IC50 beneath 1000 nM, strictly?
condition not met

Item CN(C)CCOc1ccc2[nH]c(C=C3C(=O)Nc4ccc(Br)cc43)cc2c1 : IC50 beneath 1000 nM, strictly?
condition met

Item NS(=O)(=O)c1ccc2c(c1)C(=Cc1cc3cc(OCCN4CCCC4)ccc3[nH]1)C(=O)N2 : IC50 beneath 1000 nM, strictly?
condition met

Item CC(C)NS(=O)(=O)c1ccc2c(c1)C(=Cc1cc3cc(OCCN4CCCC4)ccc3[nH]1)C(=O)N2 : IC50 beneath 1000 nM, strictly?
condition met

Item CCN(CC)CCOc1ccc2[nH]c(C=C3C(=O)Nc4cc(-c5ccccc5)ccc43)cc2c1 : IC50 beneath 1000 nM, strictly?
condition not met

----------
EGF Receptor (Homo sapiens) data, read-out IC50
# value in µM; strip the unit string

{"molecule": "O=C1Nc2ccc(Br)cc2C1=Cc1cc2cc(OCCN3CCOCC3)ccc2[nH]1", "IC50 (µM)": 1.97}

Okay, now this compound:
Reported IC50 ( O=C1Nc2ccc(S(=O)(=O)Nc3ccccc3)cc2C1=Cc1cc2cc(OCCN3CCOCC3)ccc2[nH]1 ) = 15.5

----------
EGF Receptor (Homo sapiens, UniProt P00533) data, read-out pIC50
Sequence (P00533 25-1210): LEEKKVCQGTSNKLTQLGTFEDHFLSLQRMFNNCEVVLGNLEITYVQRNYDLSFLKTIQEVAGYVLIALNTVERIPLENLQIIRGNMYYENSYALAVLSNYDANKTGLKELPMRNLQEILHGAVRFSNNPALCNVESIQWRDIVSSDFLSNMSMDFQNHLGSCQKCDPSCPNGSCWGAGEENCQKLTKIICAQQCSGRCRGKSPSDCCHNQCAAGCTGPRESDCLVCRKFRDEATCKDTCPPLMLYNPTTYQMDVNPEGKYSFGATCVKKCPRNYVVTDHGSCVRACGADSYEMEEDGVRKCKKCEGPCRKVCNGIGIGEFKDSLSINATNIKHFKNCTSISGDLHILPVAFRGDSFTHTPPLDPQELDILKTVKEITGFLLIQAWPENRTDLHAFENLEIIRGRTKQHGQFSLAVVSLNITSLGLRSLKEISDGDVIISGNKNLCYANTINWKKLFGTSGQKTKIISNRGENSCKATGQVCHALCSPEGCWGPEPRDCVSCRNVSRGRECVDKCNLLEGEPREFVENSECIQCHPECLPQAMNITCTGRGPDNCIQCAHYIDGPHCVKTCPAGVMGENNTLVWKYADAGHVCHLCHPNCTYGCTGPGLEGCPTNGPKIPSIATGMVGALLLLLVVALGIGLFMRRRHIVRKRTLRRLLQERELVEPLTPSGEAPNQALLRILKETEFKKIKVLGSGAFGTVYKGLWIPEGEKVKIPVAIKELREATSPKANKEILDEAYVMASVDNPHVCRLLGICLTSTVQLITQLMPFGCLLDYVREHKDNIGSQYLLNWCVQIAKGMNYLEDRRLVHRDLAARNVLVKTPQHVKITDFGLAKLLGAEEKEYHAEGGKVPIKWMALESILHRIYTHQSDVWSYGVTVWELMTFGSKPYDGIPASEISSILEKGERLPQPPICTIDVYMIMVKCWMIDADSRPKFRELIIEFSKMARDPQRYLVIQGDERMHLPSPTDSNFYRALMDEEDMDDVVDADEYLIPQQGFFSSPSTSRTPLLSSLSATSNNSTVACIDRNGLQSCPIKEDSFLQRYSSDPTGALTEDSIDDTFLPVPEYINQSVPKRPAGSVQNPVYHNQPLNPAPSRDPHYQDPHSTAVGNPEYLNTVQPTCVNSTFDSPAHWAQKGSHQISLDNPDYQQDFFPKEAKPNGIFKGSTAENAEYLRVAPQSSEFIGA
Just the number, please; pIC50 means minus log10 of the concentration in mol/L.

{"molecule": "O=C1Nc2ccccc2C1=Cc1cc2cc(OCCN3CCOCC3)ccc2[nH]1 [IN-007]", "assayed.system": "EGF Receptor (Homo sapiens, UniProt P00533)", "pIC50": 4.43}

Okay, now this molecule:
Reported pIC50 ( O=C1Nc2ccc(S(=O)(=O)Nc3cccnc3)cc2C1=Cc1cc2cc(OCCN3CCCC3)ccc2[nH]1 [IN-045] ) = 5.10

----------
EGF Receptor (Homo sapiens) data, read-out IC50
# value in µM; strip the unit string

Study these solved cases before continuing.
{"molecule": "O=C1Nc2ccc(S(=O)(=O)N3CCc4cc(Br)ccc43)cc2C1=Cc1cc2cc(OCCN3CCCC3)ccc2[nH]1", "assayed.system": "EGF Receptor (Homo sapiens)", "val": 1.16}
{"molecule": "CN(C)S(=O)(=O)c1ccc2c(c1)C(=Cc1cc3cc(OCCN4CCCC4)ccc3[nH]1)C(=O)N2", "assayed.system": "EGF Receptor (Homo sapiens)", "val": 7.84}

Okay, now this compound:
Entry CCN(CC)CCCc1ccc2[nH]c(C=C3C(=O)Nc4ccc(-c5ccccc5)cc43)cc2c1 under EGF Receptor (Homo sapiens) had IC50 of 2.57

----------
Parameter IC50: see the listing below.
biological target: GST-Flk1 (UniProt P35918)
# value in nM; strip the unit string

{"compound": "O=C1Nc2ccc(S(=O)(=O)N3CCc4ccccc43)cc2C1=Cc1cc2cc(OCCN3CCOCC3)ccc2[nH]1 [IN-058]", "measure": "IC50", "unit.of.measure": "nM", "val": 8490}
{"compound": "CCN(CC)CCOc1ccc2[nH]c(C=C3C(=O)Nc4ccc(-c5ccccc5)cc43)cc2c1 [IN-019]", "measure": "IC50", "unit.of.measure": "nM", "val": 160}
{"compound": "O=C1Nc2ccc(S(=O)(=O)Nc3ccc(Cl)cc3F)cc2C1=Cc1cc2cc(OCCN3CCCC3)ccc2[nH]1 [IN-049]", "measure": "IC50", "unit.of.measure": "nM", "val": 130}
{"compound": "O=C1Nc2ccc(S(=O)(=O)N3CCCc4ccccc43)cc2C1=Cc1cc2cc(OCCN3CCOCC3)ccc2[nH]1 [IN-062]", "measure": "IC50", "unit.of.measure": "nM", "val": 15400}

Entry O=C1Nc2ccc(S(=O)(=O)Nc3cccnc3)cc2C1=Cc1cc2cc(OCCN3CCCC3)ccc2[nH]1 [IN-045] under GST-Flk1 (UniProt P35918) had IC50 of 120

Entry CNS(=O)(=O)c1ccc2c(c1)C(=Cc1c(C)[nH]c3ccccc13)C(=O)N2 [IN-069] under GST-Flk1 (UniProt P35918) had IC50 of 12800

Entry O=C1Nc2ccc(Br)cc2C1=Cc1cc2cc(OCCN3CCCC3)ccc2[nH]1 [IN-014] under GST-Flk1 (UniProt P35918) had IC50 of 3

Entry CCN(CC)CCCc1ccc2[nH]c(C=C3C(=O)Nc4ccc(Br)cc43)cc2c1 [IN-002] under GST-Flk1 (UniProt P35918) had IC50 of 30

----------
UniProt P35918 data, read-out IC50
# value in nM; strip the unit string

Study these solved cases before continuing.
{"molecule": "O=C1Nc2cc(-c3cccnc3)ccc2C1=Cc1cc2cc(OCCN3CCCC3)ccc2[nH]1 [IN-025]", "IC50, nM": 140}
{"molecule": "CN(C)CCOc1ccc2[nH]c(C=C3C(=O)Nc4cc(-c5ccccc5)ccc43)cc2c1 [IN-012]", "IC50, nM": 1950}
{"molecule": "O=C1Nc2ccc(S(=O)(=O)N3CCc4ccccc4C3)cc2C1=Cc1cc2cc(OCCN3CCOCC3)ccc2[nH]1 [IN-063]", "IC50, nM": 14300}
{"molecule": "CN(c1cccc(Cl)c1)S(=O)(=O)c1ccc2c(c1)C(=Cc1cc3cc(OCCN4CCCC4)ccc3[nH]1)C(=O)N2 [IN-048]", "IC50, nM": 1160}
{"molecule": "NS(=O)(=O)c1ccc2c(c1)C(=Cc1cc3cc(OCCN4CCOCC4)ccc3[nH]1)C(=O)N2 [IN-040]", "IC50, nM": 210}

Reported IC50 ( O=C1Nc2ccc(S(=O)(=O)N3CCc4ccccc4C3)cc2C1=Cc1cc2cc(OCCN3CCCC3)ccc2[nH]1 [IN-051] ) = 370

Reported IC50 ( O=C1Nc2ccc(-c3ccccc3)cc2C1=Cc1cc2cc(OCCN3CCOCC3)ccc2[nH]1 [IN-032] ) = 1470
